Recorded values, source patent US6534525B1.

Answer each item with its documented melting point.

Record Br.c1ccc(CC2CCCCN2CCCCOc2ccccc2)cc1 (stereo not drawn) , field melting point: 100 to 103 °C

Record Cl.Fc1ccc(OCCN2CCCCC2Cc2ccc(Cl)cc2)cc1 (stereo not drawn) , field melting point: 163 to 165 °C

Record Br.FC(F)(F)c1cccc(OCCCCN2CCCCC2Cc2ccccc2)c1 (stereo not drawn) , field melting point: 143.5 to 144.5 °C

Record Br.c1ccc(CCN2CCCCC2Cc2ccccc2)cc1 (stereo not drawn) , field melting point: 162.5 to 164.5 °C

Record Br.c1ccc(CCCCN2CCCCC2Cc2ccccc2)cc1 (stereo not drawn) , field melting point: 133 to 135 °C

Record Cl.Oc1ccc(OCCN2CCCCC2Cc2ccc(Cl)cc2)cc1 (stereo not drawn) , field melting point: 229 to 230 °C

---

tested system: NMDA receptor subunits 1A/2A (NR1A+NR2A) (Rattus norvegicus, UniProt P35439+Q00959)
Sequence (Q00959 23-1464, other chains not shown): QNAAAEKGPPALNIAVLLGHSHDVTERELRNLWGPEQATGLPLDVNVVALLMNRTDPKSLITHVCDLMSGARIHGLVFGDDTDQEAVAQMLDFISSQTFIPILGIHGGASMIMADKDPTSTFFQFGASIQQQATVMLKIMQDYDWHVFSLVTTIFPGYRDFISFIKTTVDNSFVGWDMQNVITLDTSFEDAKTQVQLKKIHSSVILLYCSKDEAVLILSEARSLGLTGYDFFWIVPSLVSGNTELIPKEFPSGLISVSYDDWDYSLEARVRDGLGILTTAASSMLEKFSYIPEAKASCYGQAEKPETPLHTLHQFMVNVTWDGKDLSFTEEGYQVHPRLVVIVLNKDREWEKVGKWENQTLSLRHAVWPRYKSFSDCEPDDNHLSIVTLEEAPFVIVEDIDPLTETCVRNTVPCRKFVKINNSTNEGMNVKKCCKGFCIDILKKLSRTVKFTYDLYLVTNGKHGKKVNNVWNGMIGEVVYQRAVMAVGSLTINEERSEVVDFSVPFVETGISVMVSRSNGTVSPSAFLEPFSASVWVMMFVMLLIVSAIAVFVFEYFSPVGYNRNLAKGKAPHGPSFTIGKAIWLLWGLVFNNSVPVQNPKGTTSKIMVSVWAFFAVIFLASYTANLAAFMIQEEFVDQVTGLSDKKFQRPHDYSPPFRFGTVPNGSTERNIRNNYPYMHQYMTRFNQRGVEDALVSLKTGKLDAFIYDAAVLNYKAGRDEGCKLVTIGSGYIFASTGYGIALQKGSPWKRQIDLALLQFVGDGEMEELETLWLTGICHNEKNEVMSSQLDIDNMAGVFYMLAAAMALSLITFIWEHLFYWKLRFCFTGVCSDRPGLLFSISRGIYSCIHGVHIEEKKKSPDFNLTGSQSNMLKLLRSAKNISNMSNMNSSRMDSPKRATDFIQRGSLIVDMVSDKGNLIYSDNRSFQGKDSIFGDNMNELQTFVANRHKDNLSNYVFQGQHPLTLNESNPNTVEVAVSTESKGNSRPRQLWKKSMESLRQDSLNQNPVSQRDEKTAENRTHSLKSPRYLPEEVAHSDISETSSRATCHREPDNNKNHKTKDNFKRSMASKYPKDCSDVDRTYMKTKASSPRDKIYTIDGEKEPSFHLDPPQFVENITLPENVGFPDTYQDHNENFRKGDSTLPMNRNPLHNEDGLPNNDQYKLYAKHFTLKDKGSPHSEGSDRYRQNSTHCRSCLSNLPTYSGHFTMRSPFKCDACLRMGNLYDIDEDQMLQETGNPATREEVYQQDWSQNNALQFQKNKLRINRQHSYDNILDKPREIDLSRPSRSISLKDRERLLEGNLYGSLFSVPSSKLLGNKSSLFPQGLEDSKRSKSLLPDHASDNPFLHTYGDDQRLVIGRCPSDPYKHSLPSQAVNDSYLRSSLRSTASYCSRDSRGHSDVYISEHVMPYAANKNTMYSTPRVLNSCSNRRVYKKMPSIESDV
test description: Electrophysiological assay at cloned NMDA receptor subunits expressed in Xenopus oocytes, 1A/2A
Assay type: cell-based
applied conditions: cloned rat NMDA receptor in Xenopus oocytes, two-electrode voltage clamp, currents activated by glutamate and glycine; read-out: Subunits (IC50(μM)) 1A/2A
value type: IC50 (µM)
The response must be a number in µM with no trailing unit.

Record c1ccc(CC2CCCCN2CCOc2ccccc2)cc1 (stereo not shown) [Example 6, 2-Benzyl-1-(2-phenoxyethyl)piperidine] , field IC50: 17

Record Br.c1ccc(CC2CCCCN2CCCOc2ccccc2)cc1 (stereo not shown) [Example 7, hydrobromide] , field IC50: 4

Record CCOc1ccccc1OCC1CCCCN1CCCOc1ccccc1 (stereo not shown) [Example 17] , field IC50: 13

Record Cl.Oc1ccc(OCCCN2CCCCC2Cc2ccccc2)cc1 (stereo not shown) [Example 27, hydrochloride] , field IC50: 30

---

Answer each item with its documented melting point.
Where a name gives a salt, the structure may show the parent alone.

Record Fc1ccc(OCC[n+]2ccccc2Cc2ccc(Cl)cc2)cc1.[Br-] , field melting point: 179 to 180 °C

Record Br.Fc1cccc(OCCCCN2CCCCC2Cc2ccccc2)c1 (centres unmarked) , field melting point: 119 to 123 °C

Record c1ccc(CC2CCCCN2CCCCCOc2ccccc2)cc1 (centres unmarked) (as salt: hydrobromid) [Example 20, hydrobromide] , field melting point: 137.5 to 139.5 °C

Record Nc1ccc(OCCN2CCCCC2Cc2ccccc2)cc1 (centres unmarked) (as salt: hydrobromid) [Example 22, dihydrobromide] , field melting point: 130 °C

Record Cl.Oc1ccc(OCCCN2CCCCC2Cc2ccccc2)cc1 (centres unmarked) , field melting point: 163 to 164 °C

Record Br.c1ccc(CCCN2CCCCC2Cc2ccccc2)cc1 (centres unmarked) , field melting point: 155 to 157 °C

Record Br.FC(F)(F)c1ccccc1OCCCCN1CCCCC1Cc1ccccc1 (centres unmarked) , field melting point: 136 to 140 °C

Record O=[N+]([O-])c1ccc(OCCN2CCCCC2Cc2ccccc2)cc1 (centres unmarked) (as salt: hydrobromid) [Example 21, hydrobromide] , field melting point: 180 to 182 °C

Record Br.FC(F)(F)c1ccc(OCCCCN2CCCCC2Cc2ccccc2)cc1 (centres unmarked) , field melting point: 130 to 134 °C

Record Br.c1ccc(CC2CCCCN2CCCOc2ccccc2)cc1 (centres unmarked) , field melting point: 119 to 121 °C

Record Cl.Oc1ccc(OCCN2CCCCC2Cc2ccccc2)cc1 (centres unmarked) , field melting point: 215 to 216 °C
